From: patent US8802818B2

Target Entity: PGF2α receptor (FP) (Homo sapiens, UniProt P43088)
Sequence (P43088 whole entry, species assumed): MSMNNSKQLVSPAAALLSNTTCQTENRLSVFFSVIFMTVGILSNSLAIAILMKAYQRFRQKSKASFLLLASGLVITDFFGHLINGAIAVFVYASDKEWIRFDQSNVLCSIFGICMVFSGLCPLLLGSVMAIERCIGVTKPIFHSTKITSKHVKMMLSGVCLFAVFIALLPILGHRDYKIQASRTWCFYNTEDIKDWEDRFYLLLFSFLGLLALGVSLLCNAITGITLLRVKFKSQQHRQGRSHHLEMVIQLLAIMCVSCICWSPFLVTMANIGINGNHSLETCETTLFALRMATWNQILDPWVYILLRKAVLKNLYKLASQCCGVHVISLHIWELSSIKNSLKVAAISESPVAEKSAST
Assay: ERK1/2 MAP kinase activation in HEK293 cells stably transfected with HA-FP (western blot)
Assay type: cell-based
Parameters: expressed in transfected cells; host or cells: HEK293
Details: 1 μM azapeptide 30 min pre-treatment, then PGF2α 0.1 μM or 1 μM for 5 min
Measured Attribute: PGF2α-mediated ERK1/2 signaling relative to cells stimulated with PGF2α alone

INSERT INTO assay_data (compound_smiles, reading) VALUES
  ('C=CCN(NC(=O)Cc1ccccc1)C(=O)N1CCC[C@H]1C(=O)N[C@@H](Cc1cccnc1)C(=O)N[C@H](CC(=O)O)Cc1ccccc1', 'hindered'),
  ('CN(NC(=O)Cc1ccccc1)C(=O)N1CCC[C@H]1C(=O)N[C@@H](Cc1cccnc1)C(=O)N[C@H](CC(=O)O)Cc1ccccc1', 'hindered');
